Biological target: Msn1 (UniProt P22148)
Sequence: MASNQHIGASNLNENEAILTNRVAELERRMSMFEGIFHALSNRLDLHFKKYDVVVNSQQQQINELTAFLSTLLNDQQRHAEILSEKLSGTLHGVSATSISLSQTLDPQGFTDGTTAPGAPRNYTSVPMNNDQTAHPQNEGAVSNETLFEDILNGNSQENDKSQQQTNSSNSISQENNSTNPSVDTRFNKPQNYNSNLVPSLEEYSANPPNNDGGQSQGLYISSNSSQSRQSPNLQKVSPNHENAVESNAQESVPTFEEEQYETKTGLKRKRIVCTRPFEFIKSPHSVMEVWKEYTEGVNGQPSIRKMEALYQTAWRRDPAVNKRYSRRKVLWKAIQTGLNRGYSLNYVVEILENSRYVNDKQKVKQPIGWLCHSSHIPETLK
Test: PBM E-score (8-mer binding enrichment) (E-score (-0.5 to 0.5)); higher = stronger / more preferred TF binding
Conditions: protein concentration: 200 nM; construct: GST-full length
In all, about 33,000 sequences were measured (“E-score (-0.5 to 0.5)”: median about -0.013, highest 2% from about 0.3 on). Many of the other results were omitted from the sample, so the highest values are more common in it than they were.
readoutLabel: PBM E-score
When you answer, write just the number.

Some sequences with known PBM E-score results, for comparison:
- GGTCCGGA: 0.216
- AAAGTCCG: 0.342
- AACTGCCC: -0.105
- TAGGTAGA: 0.0723
- CTCAGACA: 0.317

Quote PBM E-score reported for AAAGATCC please. -0.12

Quote PBM E-score reported for AAAGTCCT please. 0.427

Quote PBM E-score reported for CCCAGACA please. 0.199

Quote PBM E-score reported for AGAGTCCG please. 0.0522

Quote PBM E-score reported for CAGTGCTC please. -0.259

Quote PBM E-score reported for CTCAGACC please. -0.138

Quote PBM E-score reported for ATTCCGGG please. 0.14

Quote PBM E-score reported for CAAAGTGC please. 0.0233

Quote PBM E-score reported for GCATGCCC please. 0.101

Quote PBM E-score reported for AGCGCAGC please. -0.115

Quote PBM E-score reported for CAAGTCCC please. 0.148

Quote PBM E-score reported for CGTCCGGA please. 0.331

Quote PBM E-score reported for AAAGTCCA please. 0.378

Quote PBM E-score reported for ACGCAAGC please. -0.0684

Quote PBM E-score reported for ACGAGCGT please. -0.173

Quote PBM E-score reported for CCCTCTGA please. -0.174

Quote PBM E-score reported for AGCATACC please. -0.0756
